target: GSK3β (Homo sapiens)
Sequence (P49841 whole entry): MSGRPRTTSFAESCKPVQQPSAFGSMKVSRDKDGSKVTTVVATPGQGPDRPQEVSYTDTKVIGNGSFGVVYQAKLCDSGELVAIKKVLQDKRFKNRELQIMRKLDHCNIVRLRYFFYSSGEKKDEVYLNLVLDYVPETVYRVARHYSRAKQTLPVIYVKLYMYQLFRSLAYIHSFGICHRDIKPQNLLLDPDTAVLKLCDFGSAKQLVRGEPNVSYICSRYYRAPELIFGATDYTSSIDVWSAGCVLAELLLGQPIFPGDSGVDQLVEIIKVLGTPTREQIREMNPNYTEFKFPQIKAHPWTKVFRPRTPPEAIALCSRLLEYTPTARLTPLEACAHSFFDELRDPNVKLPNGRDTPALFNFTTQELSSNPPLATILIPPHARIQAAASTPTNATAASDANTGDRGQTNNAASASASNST
pIC50: −log10 of the molar value.
Entries and their pIC50 values follow.
readoutLabel: pIC50

givenSmiles: Oc1ncnc2c1c(-c1ccccc1)cn2-c1ccccc1
measuredTarget: GSK3β (Homo sapiens)
readoutLabel: pIC50
measuredNumber: 4.57
--
givenSmiles: COCCOc1ccc(-c2cn(-c3ccccc3)c3nc[nH]c(=O)c23)cc1
measuredTarget: GSK3β (Homo sapiens)
readoutLabel: pIC50
measuredNumber: 4.66

---

molecular target: EPH-A4 (Homo sapiens); construct: lines 1-140) and Reaction Biology; assay: Dundee kinase panel; format: biochemical; settings: read-out: residual activity
Sequence (P54764 20-986): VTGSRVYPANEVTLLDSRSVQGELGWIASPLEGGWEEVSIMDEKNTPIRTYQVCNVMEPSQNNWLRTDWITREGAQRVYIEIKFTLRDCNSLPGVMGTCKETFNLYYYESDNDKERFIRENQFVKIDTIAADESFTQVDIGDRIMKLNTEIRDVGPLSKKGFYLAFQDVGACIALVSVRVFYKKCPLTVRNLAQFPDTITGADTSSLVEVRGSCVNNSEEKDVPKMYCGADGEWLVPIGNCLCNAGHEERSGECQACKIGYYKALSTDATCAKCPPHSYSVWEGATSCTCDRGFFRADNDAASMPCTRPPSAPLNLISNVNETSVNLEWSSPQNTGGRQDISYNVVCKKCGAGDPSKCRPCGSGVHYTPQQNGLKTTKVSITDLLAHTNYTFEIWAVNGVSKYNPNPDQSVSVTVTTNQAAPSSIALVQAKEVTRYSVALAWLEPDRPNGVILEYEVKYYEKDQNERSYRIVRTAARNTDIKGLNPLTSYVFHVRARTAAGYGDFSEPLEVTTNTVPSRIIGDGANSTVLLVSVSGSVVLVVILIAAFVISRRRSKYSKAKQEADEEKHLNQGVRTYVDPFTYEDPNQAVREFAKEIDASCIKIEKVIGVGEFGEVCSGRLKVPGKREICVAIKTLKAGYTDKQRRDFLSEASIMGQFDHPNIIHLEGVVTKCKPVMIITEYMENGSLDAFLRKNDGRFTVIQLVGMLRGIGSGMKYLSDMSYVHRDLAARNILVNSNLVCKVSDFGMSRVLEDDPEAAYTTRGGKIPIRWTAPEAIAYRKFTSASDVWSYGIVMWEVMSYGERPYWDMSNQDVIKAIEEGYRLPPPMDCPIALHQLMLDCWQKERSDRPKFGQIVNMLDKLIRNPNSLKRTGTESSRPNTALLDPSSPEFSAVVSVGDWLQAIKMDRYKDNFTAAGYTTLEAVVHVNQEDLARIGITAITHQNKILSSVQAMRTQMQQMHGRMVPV
Entries and their remaining activity at 1 µM values follow.
readoutLabel: remaining activity at 1 µM

givenSmiles: O=C1Nc2ccc(I)cc2/C1=C/c1cc(Br)c(O)c(Br)c1
readoutLabel: remaining activity at 1 µM
result: 91%

givenSmiles: COCCOc1ccc(-c2cn(-c3ccccc3)c3nc[nH]c(=O)c23)cc1
readoutLabel: remaining activity at 1 µM
result: 105%

givenSmiles: O=C1Cc2c([nH]c3ccc(Br)cc23)-c2ccccc2N1
readoutLabel: remaining activity at 1 µM
result: 96%

givenSmiles: Oc1ncnc2c1c(-c1ccccc1)cn2-c1ccccc1
readoutLabel: remaining activity at 1 µM
result: 92%
